- Tested on: INS-1E rat beta cells, no cytokines, CellTiter-Glo ATP, 48 h
- ASSAY PROCEDURE: cytokine-free beta-cell viability effect – INS-1E rat cells, ATP luminescence, cherry pick, counter-screen for beta-cell apoptosis protection project, dose response (AID 463229)
Activity calls are given as the source filed them.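 Rule for the calls: active = compounds raising the signal whose fitted half-maximal concentration is at or below their top tested dose (cut at about 25 µM in these data); inconclusive = flat fit at 30 to 70% activity, or a poor fit; inactive = the rest.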
Your reply should match one of these outcome classes. active, inactive

What classification did Cc1ccccc1NC(=O)/C=C/c1ccc([N+](=O)[O-])s1 end up with in this test? active

What classification did Cc1nc(Nc2cnc(/C=C/c3cc(C(=O)Nc4cccc(C(F)(F)F)c4)ccc3C)cn2)cc(N2CCNCC2)n1 end up with in this test? active

What classification did O=C(CN1CCOCC1)N/N=C/c1c(O)ccc2ccccc12 end up with in this test? active

What classification did Cc1ncc(CO)c(/C=N/Nc2ccc(C(F)(F)F)cn2)c1O end up with in this test? active

What classification did Cc1nc(N/N=C/c2ccccn2)sc1C end up with in this test? active

What classification did O=C(NC1CCCC1)c1cc(COc2ccc3ncccc3c2)on1 end up with in this test? active

What classification did COc1ccc(C2=Nn3c([n+](C)c4ccccc43)SC2)cc1 end up with in this test? active

What classification did CCOC(=O)c1c(NC(=O)/C=C/C(=O)O)sc(C)c1-c1ccc(C(C)(C)C)cc1 end up with in this test? active

What classification did CC(C)C[C@H]1CN=C(Nc2ccccc2)N1CC1CCC(C(C)(C)C)CC1 (stereo partly drawn) end up with in this test? active

What classification did c1ccc(C2(Cn3ccc4ccccc43)OCCO2)cc1 end up with in this test? inactive

What classification did Cc1ccc(NC2=C/C(=N/S(=O)(=O)c3cccs3)c3ccccc3C2=O)cc1 end up with in this test? active

What classification did CC1=C(CC(=O)c2ccc(Cl)cc2)C(=O)c2ccccc2C1=O end up with in this test? active

What classification did O=C(Oc1c(CN2CCOCC2)cc(Cl)c2cccnc12)c1ccc(F)cc1 end up with in this test? active

What classification did O=C(c1cnc(N2CCN(c3ccccn3)CC2)c2ccccc12)N1CCN(c2cccc(Cl)c2)CC1 end up with in this test? active

What classification did Cc1nn(C)c(C)c1CN(Cc1nc(CCC(C)C)no1)C(C)C end up with in this test? active

What classification did O=C(Nc1ccc(S(=O)(=O)N2CCOCC2)cc1)c1ccc([N+](=O)[O-])s1 end up with in this test? active

What classification did c1ccc(CCNc2ncnc3ccccc23)cc1 end up with in this test? active

What classification did c1ccc(-c2nc(N3CCCCCC3)c3ccccc3n2)nc1 end up with in this test? active

What classification did CN(C)C1CCN(Cc2cc(COCc3ccccc3)c3cccnc3c2O)C1 (stereo not drawn) end up with in this test? active

What classification did CC(C)=CCc1cc2c(=O)c3c(O)c4c(cc3oc2c(O)c1O)OC(C)C4(C)C (stereo not drawn) end up with in this test? active

What classification did CCc1ccc(OC)c(S(=O)(=O)Nc2ccc(Cc3ccncc3)cc2)c1 end up with in this test? active

What classification did O=C(NCc1ccccc1)C1=C[C@@H](c2csc3ccccc23)C[C@@H](OCCCCO)O1 end up with in this test? active

What classification did O=C(Nc1ccccc1Cl)/C(Cl)=C(\Cl)S(=O)c1ccccc1 (stereo not drawn) end up with in this test? active

What classification did COc1ccc2c(c1)N(C)/C(=C/c1cccc[n+]1C)S2 end up with in this test? active

What classification did c1ccc(CNc2nc(NCc3ccccc3)c3ccccc3n2)cc1 end up with in this test? active

What classification did CCN(CC)CCNC(=O)c1ccc(NC(=O)c2cn(-c3ccccc3)nc2-c2cccs2)cc1 end up with in this test? active

What classification did CCn1c(C)nc2cc(-c3nnc(-c4c(-c5ccccc5)noc4C)o3)ccc21 end up with in this test? active

What classification did COc1ccc(Cc2nc(-c3ccc(NC(=O)c4cccnc4)cc3)no2)cc1 end up with in this test? active

====

Can you tell me AC50 for the items I'm about to list?
- Test system: INS-1E rat beta cells, no cytokines, CellTiter-Glo ATP, 48 h
- ASSAY PROCEDURE: cytokine-free beta-cell viability effect – INS-1E rat cells, ATP luminescence, cherry pick, counter-screen for beta-cell apoptosis protection project, dose response (AID 463229)

For record CCC(=O)NC(c1cc(Cl)c2cccnc2c1O)C1CC1 (configuration not stated) the listed AC50 is 6.34 µM

For record N#CC(C#N)=C(Nc1ccc(F)cc1)SCc1cccc(F)c1 the listed AC50 is 5.08 µM

For record CC(=O)CSc1ccc(-c2nc3ccccc3[nH]2)cn1 the listed AC50 is 6.38 µM

For record N#C/C(N=Nc1ccccc1O)=N\Nc1ccccc1O the listed AC50 is 4.12 µM

For record COc1ccc(/C=C2\CN(Cc3ccccc3)C/C(=C\c3ccc(OC)c(O)c3)C2=O)cc1O the listed AC50 is 4.75 µM

For record CCCN(CCC)C(=O)c1cc([N+](=O)[O-])cc2c1-c1ccc([N+](=O)[O-])cc1C2=C(C#N)C#N the listed AC50 is 14.2 µM

For record COc1ccc([N+](=O)[O-])c(S(=O)(=O)c2ccccc2)n1 the listed AC50 is 7.36 µM

For record COc1ccc(-n2c(CNc3ccc(C)cc3)nnc2SCC(=O)Nc2nc(-c3ccccc3)cs2)cc1 the listed AC50 is 12.7 µM

For record C/C(=N\NC(=O)C(=O)Nc1cccc(Cl)c1)c1ccncc1 the listed AC50 is 6.53 µM

For record C/C(=N\NC(=O)c1ccccc1Cl)c1ccccn1 the listed AC50 is 5.98 µM

For record O=C(N/N=C\c1c(O)ccc2ccccc12)c1ccc(S(=O)(=O)N2CCCCC2)cc1 the listed AC50 is 1.11 µM

For record O=C(N/N=C/c1cc([N+](=O)[O-])ccc1O)c1cccc2cc[nH]c12 the listed AC50 is 6.89 µM

For record CCN1CCN(Cc2ccc(NC(=O)c3cc(NC(=O)c4cnn(-c5ccccc5)c4N)cc(OC)c3)cc2C(F)(F)F)CC1 the listed AC50 is 15.3 µM

For record CN1/C(=C\C=C2/SC(=S)NC2=O)C(C)(C)c2ccccc21 the listed AC50 is 3.38 µM

For record CCN(CC)CCOc1ccc2c(c1)C(=NO)c1cc(OCCN(CC)CC)ccc1-2 the listed AC50 is 14.1 µM

For record COc1cccc(C(=O)N/N=C(/c2ccccc2)c2ccccn2)c1 the listed AC50 is 3.73 µM

For record Cc1cc(C2CCCCC2)n(O)c(=O)c1 the listed AC50 is 2.69 µM

For record Nc1c(C(=O)Nc2ccc(S(=O)(=O)N3CCCC3)cc2)sc2nc3cc4c(cc3cc12)CCC4 the listed AC50 is 4.63 µM

For record CCCCCCCCCn1ccc(=N)cc1 the listed AC50 is 0.553 µM

For record COc1cc(/C=C/C(=O)c2ccc([N+](=O)[O-])o2)ccc1O the listed AC50 is 3.91 µM

For record CCCCCCc1cc2cc(-c3nnc(-c4ccccc4O)o3)c(=O)oc2cc1O the listed AC50 is 7.66 µM

For record Fc1ccccc1N=C1NN=C(c2ccccc2)CS1 the listed AC50 is 4.95 µM

For record Fc1ccc(CN(Cc2ccccc2)C(c2cccs2)c2nnnn2C2CCCCC2)cc1 (configuration not stated) the listed AC50 is 5.93 µM

For record COc1cc(NC(=O)c2cc3ccccc3cc2O)c(OC)cc1Cl the listed AC50 is 4.68 µM

For record CCCCCc1nc2c(c(=O)c3ccccc3n2C)c(=O)n1C1CCCCCC1 the listed AC50 is 6.84 µM

For record O=C(COc1ccc(Cl)cc1)Nc1ccc(C(=O)NCc2cccnc2)cc1 the listed AC50 is 0.236 µM

For record Cc1ccc(C(=O)Nc2nc(-c3ccccn3)cs2)s1 the listed AC50 is 6.66 µM

====

- Tested on: INS-1E rat beta cells, no cytokines, CellTiter-Glo ATP, 48 h
- ASSAY PROCEDURE: cytokine-free beta-cell viability effect – INS-1E rat cells, ATP luminescence, cherry pick, counter-screen for beta-cell apoptosis protection project, dose response (AID 463229)
MEASURED METRIC: AC50

For record C/C(=N\NC(=O)c1nnn(-c2nonc2N)c1CN(C)c1ccccc1)c1ccccc1O the listed AC50 is 9.18 µM

For record CCCN(CCC)c1nc(-c2ccccn2)nc2ccccc12 the listed AC50 is 4.34 µM

For record COc1ccc2c(C(=O)NCc3ccc4c(c3)OCO4)c(-c3ccc(S(C)(=O)=O)cc3)sc2c1 the listed AC50 is 9.16 µM

====

Can you tell me AC50 for the items I'm about to list?
- Tested on: INS-1E rat beta cells, no cytokines, CellTiter-Glo ATP, 48 h
- ASSAY PROCEDURE: cytokine-free beta-cell viability effect – INS-1E rat cells, ATP luminescence, cherry pick, counter-screen for beta-cell apoptosis protection project, dose response (AID 463229)

Measured AC50 (INS-1E rat beta cells, no cytokines, CellTiter-Glo ATP, 48 h), entry Fc1ccc(C[n+]2c(-c3ccccc3)cc(-c3ccccc3)cc2-c2ccccc2)cc1 : 3.99 µM

Measured AC50 (INS-1E rat beta cells, no cytokines, CellTiter-Glo ATP, 48 h), entry COc1ccccc1N1C(C)=CC(=C(C#N)c2nc3ccccc3s2)C=C1C : 8.66 µM

Measured AC50 (INS-1E rat beta cells, no cytokines, CellTiter-Glo ATP, 48 h), entry Cc1ccc2nc(N(CCCN(C)C)C(=O)c3ccc(S(=O)(=O)N4CCc5ccccc5C4)cc3)sc2c1 : 6.99 µM

Measured AC50 (INS-1E rat beta cells, no cytokines, CellTiter-Glo ATP, 48 h), entry CC[N+]1=C(C)C(C)(C)c2cc(C)ccc21 : 8.15 µM

All figures here come from PubChem BioAssay AID463229.
